system: HepG2; assay: Cytotoxicity against human HepG2 cells assessed as cell viability after 48 hrs by MTT assay; type: cell-based; conditions: HepG2, 48 h
measured-endpoint: pIC50
Formally, pIC50 is defined as -log10 of the concentration c, with c in mol/L.

Identify the measured pIC50 of CC(=O)O[C@H]1C[C@H]2[C@@H]([C@H](OC(C)=O)C[C@@H]3C[C@H](NC(=O)OC(C)(C)C)CC[C@@]32C)[C@@H]2CC[C@H]([C@H](C)CCCN(CCCNc3ccnc4cc(Cl)ccc34)CCC[C@@H](C)[C@H]3CC[C@H]4[C@@H]5[C@H](OC(C)=O)C[C@@H]6C[C@H](NC(=O)OC(C)(C)C)CC[C@]6(C)[C@H]5C[C@H](OC(C)=O)[C@]34C)[C@@]12C for HepG2.
4.45

Could you do the same for CC(=O)O[C@H]1C[C@H]2[C@@H]([C@H](OC(C)=O)C[C@@H]3C[C@H](N(C)C)CC[C@@]32C)[C@@H]2CC[C@H]([C@H](C)CCCN(C)CCNc3ccnc4cc(Cl)ccc34)[C@@]12C , please?
5.04

Could you do the same for CC(=O)O[C@H]1C[C@H]2[C@@H]([C@H](OC(C)=O)C[C@@H]3C[C@H](NC(=O)OC(C)(C)C)CC[C@@]32C)[C@@H]2CC[C@H]([C@H](C)CCCNCCNc3ccnc4cc(Cl)ccc34)[C@@]12C , please?
4.89

Could you do the same for CC(=O)O[C@H]1C[C@H]2[C@@H]([C@H](OC(C)=O)C[C@@H]3CC(NCCNc4ccnc5cc(Cl)ccc45)CC[C@@]32C)[C@@H]2CC[C@H]([C@H](C)CCCNCCNc3ccnc4cc(Cl)ccc34)[C@@]12C (some centres not stated) , please?
5.42

Could you do the same for CC(=O)O[C@H]1C[C@H]2[C@@H]([C@H](OC(C)=O)C[C@@H]3C[C@H](O)CC[C@@]32C)[C@@H]2CC[C@H]([C@H](C)CCCNCCCNc3ccnc4cc(Cl)ccc34)[C@@]12C , please?
5.97

Could you do the same for CC(=O)O[C@@H]1CC[C@@]2(C)[C@@H](C1)C[C@@H](OC(C)=O)[C@@H]1[C@@H]2C[C@H](OC(C)=O)[C@]2(C)[C@@H]([C@H](C)CCCN(C)CCNc3ccnc4cc(Cl)ccc34)CC[C@@H]12 , please?
5.74

Could you do the same for CC(=O)O[C@@H]1CC[C@@]2(C)[C@@H](C1)C[C@@H](OC(C)=O)[C@@H]1[C@@H]2C[C@H](OC(C)=O)[C@]2(C)[C@@H]([C@H](C)CCCNCCCCCCNc3ccnc4cc(Cl)ccc34)CC[C@@H]12 , please?
5.58

Could you do the same for CC(=O)N[C@@H]1CC[C@@]2(C)[C@@H](C1)C[C@@H](OC(C)=O)[C@@H]1[C@@H]2C[C@H](OC(C)=O)[C@]2(C)[C@@H]([C@H](C)CCCNCCNc3ccnc4cc(Cl)ccc34)CC[C@@H]12 , please?
5.72

Could you do the same for CC(=O)O[C@H]1C[C@H]2[C@@H]([C@H](OC(C)=O)C[C@@H]3C[C@H](N(C)C)CC[C@@]32C)[C@@H]2CC[C@H]([C@H](C)CCCNCCCNc3ccnc4cc(Cl)ccc34)[C@@]12C , please?
4.86

Could you do the same for CC(=O)O[C@H]1C[C@H]2[C@@H]([C@H](OC(C)=O)C[C@@H]3CC(=O)CC[C@@]32C)[C@@H]2CC[C@H]([C@H](C)CCCNCCCNc3ccnc4cc(Cl)ccc34)[C@@]12C , please?
5.95

Could you do the same for CC(=O)O[C@H]1C[C@H]2[C@@H]([C@H](OC(C)=O)C[C@@H]3C[C@H](NS(C)(=O)=O)CC[C@@]32C)[C@@H]2CC[C@H]([C@H](C)CCCNCCCNc3ccnc4cc(Cl)ccc34)[C@@]12C , please?
5.35

Could you do the same for CC(=O)O[C@H]1C[C@H]2[C@@H]([C@H](OC(C)=O)C[C@@H]3C[C@H](NS(C)(=O)=O)CC[C@@]32C)[C@@H]2CC[C@H]([C@H](C)CCCN(C)CCCNc3ccnc4cc(Cl)ccc34)[C@@]12C , please?
5.55
